target: SARS-CoV-2 spike protein receptor binding domain (RBD) (SARS-CoV-2, UniProt P0DTC2 319-539); assay: ELISA on plate-coated RBD
quantity: EC50
Put your answer as a value accompanied by its unit after it.

binder="C570 (antibody, V domains shown) VH: QVQLQESGPGLVKPSETLSLTCTVSGASISSYYWSWIRQPPGKGLEWIGYIYYSGSTNYNPSLKSRVTISLDTSKNQFSLQLSSVTAADTAVYYCATYYFDNSGYSYGLDVWGQGTTVTVSS VL: DIQMTQSPSSLSASVGDRVTIACRASQSISSYLHWYQQQPGKAPKLLIYAVTNLQSGVPSRFSGSGSGTDFTLTISSLQPEDFATYYCQQSYSLPQTFGQGTKVEIK" observedmeasurement="0.74 ng/mL"

Please examine the following record next.
Request: Looking for the measured EC50 of C565 (antibody, V domains shown) VH: EVQLVESGGGLIQPGGSLRLSCAASGLIVSSNYMNWVRQAPGKGLEWVSLLYSGGSTYYADSVKGRFTISRDNSKNTLYLQMNSLRPEDTAVYYCARDLSVVGAFDIWGQGTMVTVSS VL: EIVLTQSPGTLSLSPGERATLSCRASQSLPSTYLAWYQQKRGQAPRLLIYGASSRATGIPDRFSGSGSGTDFTLTISRLEPEDFAVYYCQQYGTSPRVTFGPGTKVDIK , can you help?
Result: 1.27 ng/mL
